src = patent US8901301B2

Target system: CYP3A4(BQ) (Homo sapiens, UniProt P08684)
Construct: purchased BD Biosciences
Sequence (P08684 whole entry): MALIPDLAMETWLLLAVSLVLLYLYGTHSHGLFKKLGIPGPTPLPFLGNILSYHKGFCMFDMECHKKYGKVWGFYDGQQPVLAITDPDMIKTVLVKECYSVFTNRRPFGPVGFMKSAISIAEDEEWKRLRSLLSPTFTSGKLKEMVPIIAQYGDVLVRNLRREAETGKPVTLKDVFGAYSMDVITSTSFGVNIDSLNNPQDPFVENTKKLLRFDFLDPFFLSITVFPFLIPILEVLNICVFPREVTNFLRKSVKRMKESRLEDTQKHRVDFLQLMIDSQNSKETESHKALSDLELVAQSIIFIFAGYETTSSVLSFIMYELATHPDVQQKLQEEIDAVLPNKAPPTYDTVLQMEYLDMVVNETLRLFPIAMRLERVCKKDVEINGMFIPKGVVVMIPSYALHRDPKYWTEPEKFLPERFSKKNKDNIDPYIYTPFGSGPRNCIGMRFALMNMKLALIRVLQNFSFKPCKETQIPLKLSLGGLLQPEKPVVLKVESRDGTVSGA
Experimental details: CYP inhibition (fluorescent substrate), CYP3A4(BQ)
Assay type: in vitro ADME
Condition context: read-out: Cyp IC50 (μM) 3A4(BQ)
Experimental: CYP (Cytochrome P450) enzymes are the major drug metabolizing enzymes present in the liver. The inhibition of CYP enzyme activity (IC50) for each of CYP1A2, CYP2C19, CYP2C9, CYP2D6, CYP3A4(BFC) and CYP3A4(BQ) is determined for compounds, where inhibition of metabolism of a known substrate leads to a decrease in the fluorescence of the metabolized product. The fluorescence of the product is monitored as a function of compound concentration. […]
Experimental readout: IC50

                                 cpd_smiles  experimental_readout  observed_measurement
0  CCCS(=O)(=O)Nc1cccc(C(=O)c2c[nH]c3ncc(C#N)cc23)c1F                  IC50               > 10 µM
1  CCCS(=O)(=O)Nc1ccc(F)c(C(=O)c2c[nH]c3ncc(C#N)cc23)c1F                  IC50               > 10 µM
2  N#Cc1cnc2[nH]cc(C(=O)c3c(F)ccc(NS(=O)(=O)c4cccc(F)c4)c3F)c2c1                  IC50            5 to 10 µM
3  N#Cc1cnc2[nH]cc(C(=O)c3c(F)ccc(NS(=O)(=O)N4CCCC4)c3F)c2c1                  IC50               > 10 µM
4  CCCS(=O)(=O)Nc1ccc(F)c(C(=O)c2c[nH]c3ncc(-c4cnc(OC)nc4)cc23)c1F                  IC50               > 10 µM
5  N#Cc1cnc2[nH]cc(C(=O)c3c(F)ccc(NS(=O)(=O)c4cc(F)ccc4F)c3F)c2c1                  IC50            5 to 10 µM
6  CN(C)S(=O)(=O)Nc1ccc(F)c(C(=O)c2c[nH]c3ncc(C#N)cc23)c1F                  IC50                < 5 µM
